Values compiled from patent US20200147235A1.

Let's look at some binders and their measured pKd.
- TARGET OR TEST SYSTEM: T1, Human CD98 ECD with C-terminal His-tag (human, UniProt P08195 105-529)
- T1 construct: also called huCD98 ECD; recombinant human CD98 extracellular domain
- T1 sequence: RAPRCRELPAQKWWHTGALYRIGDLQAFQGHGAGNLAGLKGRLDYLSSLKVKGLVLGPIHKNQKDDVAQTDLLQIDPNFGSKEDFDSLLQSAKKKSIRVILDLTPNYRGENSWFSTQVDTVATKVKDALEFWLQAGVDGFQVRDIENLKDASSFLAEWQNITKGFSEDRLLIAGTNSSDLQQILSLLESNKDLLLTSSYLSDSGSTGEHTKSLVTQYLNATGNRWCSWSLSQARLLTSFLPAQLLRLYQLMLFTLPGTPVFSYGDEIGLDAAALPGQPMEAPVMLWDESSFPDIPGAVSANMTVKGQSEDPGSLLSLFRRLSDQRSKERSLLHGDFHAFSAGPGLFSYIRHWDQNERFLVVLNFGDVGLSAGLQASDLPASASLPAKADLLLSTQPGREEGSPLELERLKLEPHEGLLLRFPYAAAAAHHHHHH
- ASSAY INFO: SPR Biacore, anti-Fc capture of mAb, CD98 ECD analyte
Lab note — pKd values are minus log10 of concentrations in M.

The cases that follow already have their pKd on record.
| BINDER | NUMERIC READOUT |
| --- | --- |
| Recombinant anti-CD98 chimeric antibody chAb6 (antibody, human IgG1, V domains shown) VH: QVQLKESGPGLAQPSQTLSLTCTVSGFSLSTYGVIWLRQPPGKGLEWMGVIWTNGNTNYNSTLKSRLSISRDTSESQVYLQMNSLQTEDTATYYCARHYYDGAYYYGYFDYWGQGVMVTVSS VL: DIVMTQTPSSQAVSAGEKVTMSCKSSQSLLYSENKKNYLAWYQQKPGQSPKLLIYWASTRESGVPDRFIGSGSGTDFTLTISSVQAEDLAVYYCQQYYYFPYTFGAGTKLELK | 8.89 |
| Recombinant anti-CD98 chimeric antibody chAb15 (antibody, human IgG1, V domains shown) VH: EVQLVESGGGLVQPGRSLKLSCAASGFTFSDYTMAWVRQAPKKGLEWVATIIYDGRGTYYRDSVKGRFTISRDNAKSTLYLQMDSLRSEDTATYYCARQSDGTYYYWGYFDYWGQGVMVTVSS VL: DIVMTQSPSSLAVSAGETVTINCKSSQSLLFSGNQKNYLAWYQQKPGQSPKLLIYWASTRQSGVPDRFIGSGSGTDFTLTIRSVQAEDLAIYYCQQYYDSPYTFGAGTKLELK | 8.96 |
| Recombinant anti-CD98 chimeric antibody chAb8 (antibody, human IgG1, V domains shown) VH: EVQLVESGGGLVQPGRSLKLSCAASGFTFSDYAMAWVRQAPKKGLEWVASIIYDGRGTYYRDSVKGRFTISRDNAKSTLYLQMDSLRSEDTATYYCARQGDGTYYYWGYFDYWGQGVMVTVSS VL: DIVMTQSPSSLAVSAGETVTINCKSSQSLLSSGNQKNYLAWYQQKPGQSPKLLIYWASTRQSGVPDRFIGSGSGTDFTLTINSVQAEDLAIYYCQQYYDTPYTFGAGTKLELK | 8.38 |
| Recombinant anti-CD98 chimeric antibody chAb3 (antibody, human IgG1, V domains shown) VH: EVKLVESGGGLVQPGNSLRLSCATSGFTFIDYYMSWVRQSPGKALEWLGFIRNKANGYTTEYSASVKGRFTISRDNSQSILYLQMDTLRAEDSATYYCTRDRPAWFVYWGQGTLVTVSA VL: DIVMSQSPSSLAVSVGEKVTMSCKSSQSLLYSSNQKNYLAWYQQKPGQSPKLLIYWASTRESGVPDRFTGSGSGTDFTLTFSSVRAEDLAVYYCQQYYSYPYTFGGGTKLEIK | 7.68 |
| Recombinant anti-CD98 chimeric antibody chAb11 (antibody, human IgG1, V domains shown) VH: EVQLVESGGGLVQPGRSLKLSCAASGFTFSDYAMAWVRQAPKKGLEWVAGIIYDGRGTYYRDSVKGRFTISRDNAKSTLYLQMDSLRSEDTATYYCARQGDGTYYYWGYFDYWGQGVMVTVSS VL: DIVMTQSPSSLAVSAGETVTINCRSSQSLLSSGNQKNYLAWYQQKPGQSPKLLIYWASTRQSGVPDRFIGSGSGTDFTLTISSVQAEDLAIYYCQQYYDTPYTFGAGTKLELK | 7.55 |

Name the recorded pKd for Recombinant anti-CD98 chimeric antibody chAb10 (antibody, human IgG1, V domains shown) VH: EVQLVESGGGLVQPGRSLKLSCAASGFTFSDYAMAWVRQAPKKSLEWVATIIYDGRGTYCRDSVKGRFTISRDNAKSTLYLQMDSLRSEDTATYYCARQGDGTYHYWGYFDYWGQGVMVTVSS VL: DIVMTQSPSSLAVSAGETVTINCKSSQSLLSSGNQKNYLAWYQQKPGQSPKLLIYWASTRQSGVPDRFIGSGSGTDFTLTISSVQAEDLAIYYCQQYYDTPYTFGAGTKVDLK .
8.48

Further, for Recombinant anti-CD98 chimeric antibody chAb9 (antibody, human IgG1, V domains shown) VH: QVQLKESGPGLVQPSQTLSLTCAVSGFSLSNYGVIWVRQPPGKGLEWMAVIWTNGNTNYNSTLKSRLSISRDTSKSQVYLKMNSLQTEDTATYYCARHYYDGTYYYGYFDYWGQGVMVTVSS VL: DIVMTQTPSSQAVSAGEKVTMSCKSSQSLLYTENKKNYLAWYQQKPGQSPKLLIYWASTRESGVPDRFMGSGSGTDFTLTISSVQAEDLAVYYCQQYYYFPYMFGAGTKLELK ?
8.48

Further, for Recombinant anti-CD98 chimeric antibody chAb12 (antibody, human IgG1, V domains shown) VH: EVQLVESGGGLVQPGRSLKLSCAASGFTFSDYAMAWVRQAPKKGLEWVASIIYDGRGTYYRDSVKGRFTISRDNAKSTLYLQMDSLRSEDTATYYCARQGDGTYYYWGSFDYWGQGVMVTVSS VL: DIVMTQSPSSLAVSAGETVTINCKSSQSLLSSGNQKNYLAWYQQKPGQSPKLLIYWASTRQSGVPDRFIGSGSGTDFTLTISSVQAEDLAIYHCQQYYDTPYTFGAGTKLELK ?
8.92

Further, for Recombinant anti-CD98 chimeric antibody chAb1 (antibody, human IgG1, V domains shown) VH: EVKLVESGGGLVQPGGSLRLSCATSGFTFTDYYMSWVRQPPGKALEWLGFIRNPANVYTTEYSASVKGRFTISRDNSQSILYLQMNTLRAEDSATYYCARASYGNSEGWFAYWGQGTLVTVSA VL: DIVMSQSPSSLAVSVGEKVTMSCKSSQNLLYNNNQKNYLAWYQQKPGQSPKLLIYWASTRESGVPDRFTGSGSGTDFTLTISSVKAEDLAVYYCQQYYSYPRTFGGGTKLEIK ?
9.68

Further, for Recombinant anti-CD98 chimeric antibody chAb7 (antibody, human IgG1, V domains shown) VH: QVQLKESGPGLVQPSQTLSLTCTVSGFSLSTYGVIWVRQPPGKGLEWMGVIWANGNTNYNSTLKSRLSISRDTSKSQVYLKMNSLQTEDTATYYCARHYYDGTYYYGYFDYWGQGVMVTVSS VL: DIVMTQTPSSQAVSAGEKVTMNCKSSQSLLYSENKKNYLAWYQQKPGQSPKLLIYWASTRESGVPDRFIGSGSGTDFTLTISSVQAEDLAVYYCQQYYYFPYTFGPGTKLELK ?
9.35
